- Tested on: NCI-H522 lung
- assay: NCI-60 one-dose screen, 48 h (100 = growth as untreated, 0 = no growth, -100 = all killed)
- recorded.conditions: 10 µM unless noted
About 83,000 compounds went through this panel and 20% of them were active in at least one assay; those are over-represented in the sample as a whole.
Answer each item with its documented growth.
State just the number; it will be interpreted in %.

## Task Read off the recorded growth for `COc1ccc(-c2c(Nn3cnnn3)no[n+]2[O-])cc1`
## Result -14.3

## Task Specify measured growth for `Cc1c(C(=O)NNC(=O)c2ccc(Cl)cc2)nnn1-c1ccc(Br)cc1` .
## Result 97.6

## Task Given the molecule `O=c1[nH]c2ccccc2cc1CSc1nccc(-c2ccc3ccccc3c2)n1` , write its reported growth.
## Result 49.6

## Task Input `C[C@H](Nc1nc(NCCc2ccccc2)nc2ccccc12)c1ccccc1` , output reported growth.
## Result -82.9

## Task Using the record for `CC(=O)Nc1cccc(Nc2nccc(N[C@@H](C)c3ccccc3)n2)c1` , state its measured growth.
## Result -43.4

## Task For the molecule `N#Cc1c(-c2ccc(Br)cc2)nc2n[nH]c(-c3ccc(Br)cc3)c2c1-c1ccc(C(F)(F)F)cc1` , report growth.
## Result 10.1

## Task Tell me measured growth for CC1[C@H]2[C@H](C[C@H]3[C@@H]4CC=C5c6sc(Nc7ccccc7F)nc6CC[C@]5(C)[C@H]4CC[C@@]32C)O[C@]12CC[C@@H](C)CO2 (some centres undefined) please.
## Result -66.5

## Task Identify measured growth associated with COc1c(F)ccc(C(=O)Nc2ccc3nc(NC(=O)C4CCCN(S(=O)(=O)c5cccc(Cl)c5)C4)sc3c2)c1F (centres undefined)
## Result 79

## Task Give growth for the following molecule: `Cc1cccc(NC(=O)CN2CCN(c3ncnc4c3cnn4-c3ccccc3)CC2)c1`
## Result -39.6

## Task Using the record for `Cc1cc(N=C2NC(=O)CS2)n[nH]1` , state its measured growth.
## Result 103

## Task Dear colleague, please send me the reported growth for `Cc1ccc(C(=O)NN2C(=O)/C(=C/C=C/c3ccc([N+](=O)[O-])o3)SC2=S)cc1` when you can.
## Result -90.7

## Task Please indicate growth recorded for CC1(c2cc3cc(Br)ccc3oc2=O)NC(=O)c2c(/C=C/C(=O)OC3CC4CCC3(C)C4(C)C)cccc2N1 (centres undefined)
## Result 68.3

## Task Give growth for the following molecule: `COc1cc2oc(-c3cccc(NC(=O)[C@H](Cc4ccccc4)NC(=O)OC(C)(C)C)c3)cc(=O)c2c(OC)c1OC`
## Result 30.3

## Task Quote growth reported for COc1c(F)ccc(C(=O)Nc2ccc3nc(NC(=O)C4CCCN(S(=O)(=O)C5CC5)C4)sc3c2)c1F (centres undefined) please.
## Result 40.7

## Task Name the recorded growth of the molecule listed here: `NS(=O)(=O)c1ccc(N=Nc2c(O)n(CC(=O)Nc3ccccc3)c3ccccc23)cc1`
## Result 31.6

## Task State its growth: `Cn1cc(-c2cc3nc(-c4c[nH]c5ccc(Cl)cc45)cc(N)n3n2)c2ccccc21`
## Result -76.5

## Task State, in one line, measured growth of CC1CCCCN1CCCNC(=O)N/C(N)=N/c1nc2ccccc2s1 (centres undefined)
## Result 72.2

## Task Please give measured growth of the following entry: `CN1CCN(c2ccc3c(c2)nc(NNC(=O)c2cnccn2)c2cccn23)CC1`
## Result -16.7

## Task Report growth for `Cc1ccc(S(=O)(=O)c2nc(S(=O)(=O)c3ccc(C)cc3)c(N3CCN(C)CC3)s2)cc1`
## Result 15.2
